biological target: collagenase; test: FALGPA hydrolysis assay (compound purity […]); also retained in Target Binding ultrafiltration UHPLC-MS (RA […]); assay type: biochemical, Hathewaya histolytica
Experimental readout: IC50 (µM)

INSERT INTO measurements (molecular_string, experimental_readout, measurement) VALUES
  ('O=C1C[C@@H]2c3ccccc3O[C@H]3c4ccc(O)c(O)c4-c4c(O)cc(O)c1c4[C@H]23', 'IC50', 167);

From: paper PMC8309073
